Taken from patent US20100099663A1.

# Experimental System: catalytic domain of human collagenase-3 (MMP-13) (Homo sapiens, UniProt P45452)
# Construct: Determination of the Enzymatic Activity of the Catalytic Domain of Human Collagenase-3 (MMP-13); purchased INVITEK, Berlin 30 100 803
# Assay Summary: Enzymatic activity of the catalytic domain of human collagenase-3 (MMP-13), fluorogenic substrate
# Assay type: biochemical
# Conditions: APMA-activated proenzyme, pH 7.5, read-out: Matrix metalloproteinase inhibition MMP-13 (IC50)
# Procedure: Determination of the Enzymatic Activity of the Catalytic Domain of Human Collagenase-3 (MMP-13). Activation of the proenzyme: 2 parts by volume of proenzyme were incubated with 1 part by volume of APMA solution at 37° C. for 1.5 hours. […] The enzymic activity was measured by incubating 10 μl of enzyme solution with 10 μl of a 3% strength (v/v) buffered dimethyl sulfoxide solution (reaction 1) for 15 minutes. […]
pIC50: −log10 of the molar value.
Readout Type: pIC50

Worked cases, answers included:
compound="O=C(NO)C1C2CCOC2CCN1S(=O)(=O)c1ccc(Oc2ccc(OC(F)(F)F)cc2)cc1 (centres unmarked) [Example 6]" readout_type=pIC50 val=8.70
compound="O=C(NO)C1c2ccccc2CCN1S(=O)(=O)c1ccc(Oc2ccc(OC(F)(F)F)cc2)cc1 (centres unmarked) [Example 3]" readout_type=pIC50 val=8.70
compound="COc1ccc(Oc2ccc(S(=O)(=O)N3CCc4ccccc4C3C(=O)NO)cc2)cc1 (centres unmarked) [Example 9, reference compound]" readout_type=pIC50 val=8.66

1 = O=C(NO)C1C2CCCCC2CCCN1S(=O)(=O)c1ccc(Oc2ccc(OC(F)(F)F)cc2)cc1 (centres unmarked) [Example 7]
2 = O=C(NO)C1C2CCCCC2CCN1S(=O)(=O)c1ccc(Oc2ccc(OC(F)(F)F)cc2)cc1 (centres unmarked) [Example 4]
Hello, I am sorting some records. Could you say if 1 or 2 has the smaller pIC50 value? State the label of the item chosen.
2

###

# Assay Summary: Pharmacokinetic measurements in mice after oral administration (n-in-one study)
# Format: in vivo
# Conditions: male C57/BL mice, oral by gavage about 7.5 mg per kg in PEG400/water 1:1, n-in-one, plasma
Readout Type: Cmax (ng/mL)

molecule="O=C(NO)C1c2ccccc2CCN1S(=O)(=O)c1ccc(Oc2ccc(OC(F)(F)F)cc2)cc1 (stereo not drawn) [Example 3]" readout_type=Cmax val=1350

A = COc1ccc(Oc2ccc(S(=O)(=O)N3CCc4ccccc4C3C(=O)NO)cc2)cc1 (stereo not drawn) [Example 9, reference compound]
B = O=C(O)C1c2ccccc2CCN1S(=O)(=O)c1ccc(Oc2ccc(OC(F)(F)F)cc2)cc1 (stereo not drawn) [Example 10]
For the two items A and B , which reports the higher Cmax value? State the label of the item chosen.
A
(A: 450 ng/mL, B: 240 ng/mL)

###

# Experimental System: catalytic domain of human stromelysin (MMP-3) (Homo sapiens)
# Construct: Enzymatic Activity of the Catalytic Domain of Human Stromelysin (MMP-3); made in house
# Sequence (P08254 100-272 limits assumed): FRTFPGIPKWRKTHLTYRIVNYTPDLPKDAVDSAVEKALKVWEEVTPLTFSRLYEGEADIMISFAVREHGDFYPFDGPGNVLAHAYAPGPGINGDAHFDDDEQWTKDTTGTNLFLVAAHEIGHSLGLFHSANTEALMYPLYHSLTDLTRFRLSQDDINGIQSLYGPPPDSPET
# Assay Summary: Enzymatic activity of the catalytic domain of human stromelysin (MMP-3), fluorogenic substrate
# Format: biochemical
# Conditions: pH 7.5, 15 min preincubation, read-out: Matrix metalloproteinase inhibition MMP-3 (IC50)
pIC50: −log10 of the molar value.
Readout Type: pIC50

molecule="O=C(NO)C1c2ccccc2CCN1S(=O)(=O)c1ccc(Oc2ccc(OC(F)(F)F)cc2)cc1 (stereo not shown) [Example 3]" readout_type=pIC50 val=7.55
molecule="O=C(NO)C1C2CCCCC2CCCN1S(=O)(=O)c1ccc(Oc2ccc(OC(F)(F)F)cc2)cc1 (stereo not shown) [Example 7]" readout_type=pIC50 val=7.62

P = COc1ccc(Oc2ccc(S(=O)(=O)N3CCc4ccccc4C3C(=O)NO)cc2)cc1 (stereo not shown) [Example 9, reference compound]
Q = O=C(NO)C1C2CCCCC2CCN1S(=O)(=O)c1ccc(Oc2ccc(OC(F)(F)F)cc2)cc1 (stereo not shown) [Example 4]
For the two items P and Q , which reports the higher pIC50 value? State the label of the item chosen.
P
(P: 7.64, Q: 7.16)

###

# Experimental System: catalytic domain of neutrophil collagenase (MMP-8) (Homo sapiens)
# Construct: Catalytic Domain of Human Stromelysin (MMP-3) and of Neutrophil Collagenase (MMP-8)
# Sequence (P22894 100-262 limits assumed): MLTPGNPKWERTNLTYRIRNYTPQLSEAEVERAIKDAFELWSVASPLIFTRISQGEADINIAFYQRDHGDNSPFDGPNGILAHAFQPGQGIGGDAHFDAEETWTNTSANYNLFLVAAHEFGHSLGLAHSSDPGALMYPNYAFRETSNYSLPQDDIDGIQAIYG
# Assay Summary: Enzymatic activity of the catalytic domain of neutrophil collagenase (MMP-8), fluorogenic substrate
# Conditions: pH 7.5, 15 min preincubation, read-out: Matrix metalloproteinase inhibition MMP-8 (IC50)
Readout Type: IC50 (nM)

Worked cases, answers included:
compound="O=C(NO)C1c2ccccc2CCN1S(=O)(=O)c1ccc(Oc2ccc(OC(F)(F)F)cc2)cc1 (centres unmarked)" val=3.6
compound="O=C(NO)C1C2CCOC2CCN1S(=O)(=O)c1ccc(Oc2ccc(OC(F)(F)F)cc2)cc1 (centres unmarked)" val=4

P = O=C(NO)C1C2CCCCC2CCCN1S(=O)(=O)c1ccc(Oc2ccc(OC(F)(F)F)cc2)cc1 (centres unmarked)
Q = O=C(NO)C1C2CCCCC2CCN1S(=O)(=O)c1ccc(Oc2ccc(OC(F)(F)F)cc2)cc1 (centres unmarked)
R = COc1ccc(Oc2ccc(S(=O)(=O)N3CCc4ccccc4C3C(=O)NO)cc2)cc1 (centres unmarked) [Example 9, reference compound]
hey, can you rank those compounds up there by IC50? biggest number first please API: response body holds the labels in the requested order.
Q, P, R
(Q: 14 nM, P: 4 nM, R: 2.3 nM)
